kon by entry:
# systemTested: T1, recombinant human TR-2 with a C-terminal hexahistidine tag (TR-2-His) (human, UniProt O14763 56-207)
# T1 construct: also called soluble TR-2-His
# experimentSummary: SPR Biacore 2000; antibody captured on anti-human antibody chip, 226 nM TR-2-His injected, 25 C, 1:1 model;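 also: goat anti-human capture surface amine-coupled on CM5 chip, HBS-P running buffer with BSA, responses normalized to captured antibody level, kinetics from global 1:1 fitting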
Give just the number in M⁻¹ s⁻¹; leave the unit off.

Some solved entries appear below for comparison.
1. anti-TR-2 antibody C (antibody, V domains shown, Human antibody from XenoMouse; also called Ab C) VH: QVQLQESGPGLVKPSQTLSLTCTVSGGSISSGGHYWSWIRQHPGKGLEWIGYIYYSGSAYYNPSLKSRVTISVDTSKNQFSLKLSSVTAADTAVYYCARDDSSGWGFDYWGQGILVTVSS VL: DIQMTQSPSSLSASVGDRVTITCRASQGLRNDLGWFQQKPGKAPKRLIYAASSLQRGVPSRFSGSGSGTEFTLTISSLQPEDFTTYFCLQHNSFPWTFGQGTKVEIK ... 680000
2. anti-TR-2 antibody B (antibody, V domains shown, Human antibody from XenoMouse; also called Ab B) VH: QVQLQESGPGLVKPSQTLSLTCTVSGGSISSGGHYWSWIRQHPGKGLEWIGYIYYSGSTYYNPSLKSRVTISVDTSKNQFSLKLSSVTAADTAVYYCARDDSSGWGFDYWGQGILVTVSS VL: DIQMTQSPSSLSASVGDRVTITCRASQGLRNDLGWFQQKPGKVTKRLIYAASSLQRGVPSRFSGSGSGTEFTLTISSLQPEDFATYYCLQHYSFPWTFGQGTKVEIK ... 570000

Shift focus to the following entry.
Return kon (reported value) for this binder: anti-TR-2 antibody O (antibody, V domains shown, also called Ab O) VH: QVQLQESGPGLVKPSQTLSLTCTVSGGSISSGDYFWSWIRQLPGKGLECIGHIHNSGTTYYNPSLKSRVTISVDTSKKQFSLRLSSVTAADTAVYYCARDRGGDYYYGMDVWGQGTTVTVSS VL: EIVLTQSPGTLSLSPGERATLSCRASQGISRSYLAWYQQKPGQAPSLLIYGASSRATGIPDRFSGSGSGTDFTLTISRLEPEDFAVYYCQQFGSSPWTFGQGTKVEIK 440000
